target: His-tagged SARS-CoV-2 RBD (Victoria RBD) (SARS-CoV-2, Victoria/Wuhan-Hu-1 (same …, UniProt P0DTC2)); assay: BLI; details: both partners purified
measuredAttribute: Kd (nM)
Give bare numbers, in nM.

Please review the following examples before continuing.
Qu. Consider the binder mAb 222 (antibody, V domains shown, copies: 2 + 2) VH: EVQLVESGGGLIQPGGSLRLSCAASGLTVSSNYMSWVRQAPGKGLEWVSVIYSGGSTFYADSVKGRFTISRDNSKNTLYLQMNSLGAEDTAVYYCARGEGSPGNWFDPWGQGTLVTVSS VL: DVVMTQSPGTLSLSPGERATLSCRASQSVPSSYLAWYQQKPGQAPRLLIYGASTRATGIPDRFSGSGSGTDFTLTISRLEPEDFAVYYCQHYDTSPRFGGGTKVDIK and give its measured Kd.
Ans. 0.25

Qu. Please look up its Kd: mAb 384 (antibody, V domains shown, copies: 2 + 2) VH: EVQLVESGGGLVKPGESLRLSCAASGFTFSDYYMTWIRQAPGKGLEWVSYIRSSGHTIYYADSVKGRFTISRDNAKNSLYLQMNSLRVEDTAVYYCARGGVLRFLEWPLNAFDIWGQGTMVTVSS VL: DIQLTQSPSSLSASVGDRVTITCRASQGISNYLAWYQQKPGKVPKLLIYAASTLQSGVPSRFSGSGSGTDFTLTISSLQPEDVATYYCQKYNNALGTFGQGTKVEIK
Ans. 0.65

Qu. What measured Kd goes with mAb 278 (antibody, V domains shown, copies: 2 + 2) VH: QVQLVQSGAEVKKPGASVKVSCKASGYIFIRYGISWVRQAPGQGLEWMGWISANNGYTNYAQKLQGRVTMTTDTSTSTAYMELRSLRSDDTAVYYCARDGGILTGYLDYFDHWGQGTLVTVSS VL: DIQMTQSPSSLSASVGDRLTITCRASQSIASYLNWYQQKPGKAPKLLIYAASSLQSGVPSRFSGSGSGTDFTLTISSLQPEDFATYHCQQSYSTLGITFGPGTKVDIK ?
Ans. 1.6

Qu. Look at this binder and give its reported Kd. mAb 88 (antibody, V domains shown, copies: 2 + 2) VH: QLQLQESGPGLVKPSQTLSLTCTVSGGSISSGSYNWTWIRQPAGKGLEWIGRIYNSGSTNYNPSLKSRVTISVDTSKNQLSLKVRSVTAADTAVYYCARHCSGGTCYPKYYYGMDVWGQGTTVTVSS VL: QSALTQPPSVSEAPRQRVTISCSGSSSNIGNNAVNWYQQFPGKAPKLLIYYDDLLPSGVSDRFSGSKSGTSASLAISGVQSEDEADYYCAAWDDSLNVVVFGGGTKLTVL
Ans. 4.4

Now examine the next entry.
Qu. Entry under review: REGN10987 (antibody, V domains shown, source: provided by AstraZeneca; copies: 2 + 2) VH: QVQLVESGGGVVQPGRSLRLSCAASGFTFSNYAMYWVRQAPGKGLEWVAVISYDGSNKYYADSVKGRFTISRDNSKNTLYLQMNSLRTEDTAVYYCASGSDYGDYLLVYWGQGTLVTVSS VL: QSALTQPASVSGSPGQSITISCTGTSSDVGGYNYVSWYQQHPGKAPKLMIYDVSKRPSGVSNRFSGSKSGNTASLTISGLQSEDEADYYCNSLTSISTWVFGGGTKLTVL . Reported Kd?
Ans. 0.38
